Target: T1, human B7H3 on cancer cell lines (human, UniProt Q5ZPR3 29-534)
T1 sequence (looked up): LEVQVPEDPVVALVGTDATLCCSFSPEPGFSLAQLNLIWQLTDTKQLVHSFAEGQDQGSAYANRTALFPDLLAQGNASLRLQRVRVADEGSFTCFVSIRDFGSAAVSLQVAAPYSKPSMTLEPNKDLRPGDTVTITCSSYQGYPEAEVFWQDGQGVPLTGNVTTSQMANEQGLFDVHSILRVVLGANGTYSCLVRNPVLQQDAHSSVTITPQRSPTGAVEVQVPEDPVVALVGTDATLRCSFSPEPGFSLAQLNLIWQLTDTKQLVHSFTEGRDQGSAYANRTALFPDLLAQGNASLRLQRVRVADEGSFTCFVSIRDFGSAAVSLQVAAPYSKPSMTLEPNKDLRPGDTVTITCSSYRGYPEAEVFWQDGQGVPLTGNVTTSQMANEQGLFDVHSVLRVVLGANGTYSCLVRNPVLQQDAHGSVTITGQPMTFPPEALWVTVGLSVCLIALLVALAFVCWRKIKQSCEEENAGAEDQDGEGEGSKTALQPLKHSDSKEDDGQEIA
Test: cell-based or functional assay
Readout kind: A498 CTG (IC 50 M) (nM)
Give the value in nM but do not write nM after it.

Task: Indicate its recorded A498 CTG (IC 50 M); the binder in question is ADC Example 257-6499 (antibody, human IgG1, lambda, V domains shown, drug-linker from Intermediate F257 on Cys, sites not stated) VH: EVQLLESGGGLVQPGGSLRLSCAASGFTFRDFYMNWIRQAPGKGLEWVSSISASGKYTYYADSVKGRFTISRDNSKNTLYLQMNSLRAEDTAVYYCAREWGYCTNDVCRNWFDPWGQGTLVTVSS VL: QSVLTQPPSASGTPGQRVTISCSGGYSNVGGNNVNWYQQLPGTAPKLLIYGNSNRPSGVPDRFSGSKSGTSASLAISGLRSEDEADYYCQSYDSSLSGSVFGGGTKLTVLG
Output: 0.247

Task: Indicate its recorded A498 CTG (IC 50 M); the binder in question is ADC Example 208-6515 (antibody, human IgG1, lambda, V domains shown, drug-linker from Intermediate F104 on Cys, sites not stated) VH: EVQLLESGGGLVQPGGSLRLSCAASGFTFSSYGMHWVRQVPGKGLEWVSAISGSGGTTYYADSVKGRFTISRDNSKNTLYLQMNSLRAEDTAVYYCARGGYHFLFDYWGQGTLVTVSS VL: QSVLTQPPSASGTPGQRVTISCSGSSSNIGSNTVNWYQQLPGTAPKLLIYRNDQRLLGVPDRFSGSKSGTSASLAISGLRSEDEADYYCQSYDSSLSGWVFGGGTKLTVLG
Output: 0.688

Task: Indicate its recorded A498 CTG (IC 50 M); the binder in question is ADC Example 208-6502 (antibody, human IgG1, lambda, V domains shown, drug-linker from Intermediate F104 on Cys, sites not stated) VH: EVQLLESGGGLVQPGGSLRLSCAASGFTFSTYGMHWVRQAPGKGLEWVSAISGSGGSTYYADSVKGRFTISRDNSKNTLYLQMNSLRAEDTAVYYCTRGYYYYGMDVWGQGTLVTVSS VL: QSVLTQPPSASGTPGQRVTISCSGGSSNIGSNPVNWYQQLPGTAPKLLIYGNSKRPSGVPDRFSGSKSGTSASLAISGLRSEDEADYYCQSYDSSLSGWVFGGGTKLTVLG
Output: 0.0667

Task: Indicate its recorded A498 CTG (IC 50 M); the binder in question is ADC Example 194-6502 (antibody, human IgG1, lambda, V domains shown, drug-linker from Intermediate F194 on Lys, sites not stated) VH: EVQLLESGGGLVQPGGSLRLSCAASGFTFSTYGMHWVRQAPGKGLEWVSAISGSGGSTYYADSVKGRFTISRDNSKNTLYLQMNSLRAEDTAVYYCTRGYYYYGMDVWGQGTLVTVSS VL: QSVLTQPPSASGTPGQRVTISCSGGSSNIGSNPVNWYQQLPGTAPKLLIYGNSKRPSGVPDRFSGSKSGTSASLAISGLRSEDEADYYCQSYDSSLSGWVFGGGTKLTVLG
Output: 2.93
